B1: TPR t1 (parent)
chain: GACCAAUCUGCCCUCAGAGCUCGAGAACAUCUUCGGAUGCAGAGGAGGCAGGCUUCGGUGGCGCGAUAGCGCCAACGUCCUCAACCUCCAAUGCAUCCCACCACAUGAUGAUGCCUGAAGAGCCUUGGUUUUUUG

# Variants of: B1
# run description: polymerase ribozyme fitness, log enrichment relative to wild type (log ratio); higher = more active; in vitro selection for triplet polymerase activity
property measured: polymerase ribozyme fitness (log ratio)
# respond with the number and nothing more

Worked examples follow.
>>> measured_result("GACCAAUCUGCCCUCAGAGCUAGAGAACAUCUUCGGAUGCAGAGGAGGCAGGCUUCGGUGGCGCGAUAGCGCCAACGUCCUCAACCUCCAAUGCAUCCCACCACAUGAUAAUGCCUGAAGAGCCUUGGUUUUUUG")
-4.72
>>> measured_result("GACCAAUCUGCCCUCAGAGCUCGAGAACAUCUUCGGAUGCAGAGGAGGCAGGCUUCGGUGGCCCGAUAGCGCCAACGUCCUCAACCUCCAAUGCAUCCCAUCACAUGAUGAUGCCUGAAGAGCCUUUGUUUUUUG")
-1.08
>>> measured_result("GACCAAUCUGCCCUCAGAGCUCGAGAACAUCUUCGGAUGCAGAGGAGGCAGGCUUCGGUGUCGCGAUACCGUCAACGUCCUCAACCUCCAAUGCAUCCCACCACAUGAUGCUGCCUGAAGAGCCUUGGUUUUUUG")
-6.94
>>> measured_result("GACCAAUCUGCCCUCAGAGCUCGAGAACAUCUUCGGAUGCAGAGGAGGCAGGCUUCGGUGGCGAGAUAGCGCCAACGUCCUCAACCUCCAAUGCAUCCCACCACAUGAUGAUGCCUGAACAGCCUUGGUUUUUUG")
-3.88
>>> measured_result("GACCAAUCUGCCCUCAGAGCUCGAGAACAUCUUCGGAUGCAGAGGAUGCAGGUUUCGGUGGCGCGAUAGCGCCAACGUCCUCAACCUCCAAUGCAUCCCACCACAUGAUGGUGCCUGAAGAGCCUUGGUUUUUUG")
-1.54
>>> measured_result("GACCAAUCUGCCCUCAGAGCUCGAGAACAUCUUCGGAUGCAGAGGAGGCAGGCUUCGGUGGCGCGAUAGCGCCAACGUCCUCAACCUCCAAUGUAUCCCACCACAUGAUGAUCCCUGAAGAGCCUUGGUUUUUUG")
-2.26

Any idea what its polymerase ribozyme fitness (log ratio) is? The variant is GACCAAUCUGCCCUCAGCGCUCGAGAACAUCUUAGGAUGCAGAGGAGGCAGGCUUCGGUGGCGCGAUAGCGCCAACGUCCUCAACCUCCAAUGCAUCCAACCACAUGAUGAUGCCUGAAGAGACUAGGUUUUUUG -5.25

Any idea what its polymerase ribozyme fitness (log ratio) is? The variant is GACCAAUCUGCCCUCAGAGCUCGAGAACAUCUUCGGAUGCAGAGGAGGCAGGCUUCGGUGGCGCGAUAGCGCCAACGUCCUCAACCUCCAAUGCAUCCCACCACACGAUGAUGCCUGAAGAGGCUUGGUUUUGUG -1.72
